These entries and their values trace back to the DeepSol protein solubility set.

Assay: soluble on expression in E. coli; label from the status in PepcDB or PDB records
property measured: soluble on expression in E. coli

1) MVSDAAERNLAFALSELDRITAQLKLPRHVEEEAARLYREAVRKGLIRGRSIESVMAACVYAACRLLKVPRTLDEIADIARVDKKEIGRSYRFIARNLNLTPKKLFVKPTDYVNKFADELGLSEKVRRRAIEILDEAYKRGLTSGKSPAGLVAAALYIASLLEGEKRTQREVAEVARVTEVTVRNRYKELVEKLKIKVPIA ... soluble
2) MKPYLEEKLEGARKSVPGFALEELKQKIISSPIQFGKSDIDDLVSNLLKRYEQTKENSLIGKIDSIFKEISDIEKVMSAKQPEPAQQQAPVEKPKKKAKLEVIGDDVVSIMVSLRWLEFLLDNYGPENTLDVLDYYESLGWISATVKEQMMKYAKMTGVMNPAQEYKIKPSIQDHIINMLFIEKLRGEEINRDLIEALEREFRTIRKGVDELYGI ... soluble
